- Tested on: Saccharomyces cerevisiae
- measurement description: Effect on Saccharomyces cerevisiae TDH1 up to 500 uM
Activity calls are given as the source filed them. The rule behind the calls is not given here.
parameter: Activity

In the examples that follow, each entry is paired with its recorded Activity.
- substance smiles: "COc1ccc2c(c1)c(=O)c(C(=O)O)cn2[C@@H]1O[C@H](CO)[C@@H](O)[C@H]1O"
  test target: "Saccharomyces cerevisiae"
  Activity: "inactive"
- substance smiles: "O=C(O)c1cn([C@@H]2O[C@H](CO)[C@@H](O)[C@H]2O)c2ccc(Br)cc2c1=O"
  test target: "Saccharomyces cerevisiae"
  Activity: "inactive"
- substance smiles: "Cc1ccc2c(c1)c(=O)c(C(=O)O)cn2[C@@H]1O[C@H](CO)[C@@H](O)[C@H]1O"
  test target: "Saccharomyces cerevisiae"
  Activity: "inactive"
- substance smiles: "COc1ccc2c(=O)c(C(=O)O)cn([C@@H]3O[C@H](CO)[C@@H](O)[C@H]3O)c2c1"
  test target: "Saccharomyces cerevisiae"
  Activity: "inactive"

Entry O=C(O)c1cn([C@@H]2O[C@H](CO)[C@@H](O)[C@H]2O)c2cc(Br)ccc2c1=O has what Activity?
inactive

Entry O=C(O)c1cn([C@@H]2O[C@H](CO)[C@@H](O)[C@H]2O)c2ccc(Cl)cc2c1=O has what Activity?
inactive

Entry Cc1ccc2c(=O)c(C(=O)O)cn([C@@H]3O[C@H](CO)[C@@H](O)[C@H]3O)c2c1 has what Activity?
inactive
